These data points were gathered from patent US6534524B1.

Tested on: human umbilical vein endothelial cells (HUVEC)
Experiment: HUVEC proliferation assay (VEGF-stimulated, MTT)
Type: cell-based
Conditions: Homo sapiens, HUVEC; read-out: HUVEC + albumin IC50
Protocol: HUVEC Proliferation Assay This assay determines the ability of a test compound to inhibit the growth factor-stimulated proliferation of human umbilical vein endothelial cells (“HUVEC”). […] Cellular proliferation was quantified 72 hours later by MTT dye reduction, at which time cells were exposed for 4 hours MTT (Promega Corp.). For screening compound library plates, one or two concentrations (one well per concentration) were employed, and the % inhibition was calculated by the following formula: […]
assayEndpoint: IC50

(Q) Query: IC50; subject: O=C(Nc1cccc(C(=O)c2ccc3c(/C=C/c4ccccn4)n[nH]c3c2)c1)Oc1ccccc1 [Example 41(cc)]
(A) > 0.1 µM
